Listing: pIC50 of selected molecules
- MEASURED_TARGET: p110γ (Homo sapiens (Human))
- Sequence (P48736 whole entry): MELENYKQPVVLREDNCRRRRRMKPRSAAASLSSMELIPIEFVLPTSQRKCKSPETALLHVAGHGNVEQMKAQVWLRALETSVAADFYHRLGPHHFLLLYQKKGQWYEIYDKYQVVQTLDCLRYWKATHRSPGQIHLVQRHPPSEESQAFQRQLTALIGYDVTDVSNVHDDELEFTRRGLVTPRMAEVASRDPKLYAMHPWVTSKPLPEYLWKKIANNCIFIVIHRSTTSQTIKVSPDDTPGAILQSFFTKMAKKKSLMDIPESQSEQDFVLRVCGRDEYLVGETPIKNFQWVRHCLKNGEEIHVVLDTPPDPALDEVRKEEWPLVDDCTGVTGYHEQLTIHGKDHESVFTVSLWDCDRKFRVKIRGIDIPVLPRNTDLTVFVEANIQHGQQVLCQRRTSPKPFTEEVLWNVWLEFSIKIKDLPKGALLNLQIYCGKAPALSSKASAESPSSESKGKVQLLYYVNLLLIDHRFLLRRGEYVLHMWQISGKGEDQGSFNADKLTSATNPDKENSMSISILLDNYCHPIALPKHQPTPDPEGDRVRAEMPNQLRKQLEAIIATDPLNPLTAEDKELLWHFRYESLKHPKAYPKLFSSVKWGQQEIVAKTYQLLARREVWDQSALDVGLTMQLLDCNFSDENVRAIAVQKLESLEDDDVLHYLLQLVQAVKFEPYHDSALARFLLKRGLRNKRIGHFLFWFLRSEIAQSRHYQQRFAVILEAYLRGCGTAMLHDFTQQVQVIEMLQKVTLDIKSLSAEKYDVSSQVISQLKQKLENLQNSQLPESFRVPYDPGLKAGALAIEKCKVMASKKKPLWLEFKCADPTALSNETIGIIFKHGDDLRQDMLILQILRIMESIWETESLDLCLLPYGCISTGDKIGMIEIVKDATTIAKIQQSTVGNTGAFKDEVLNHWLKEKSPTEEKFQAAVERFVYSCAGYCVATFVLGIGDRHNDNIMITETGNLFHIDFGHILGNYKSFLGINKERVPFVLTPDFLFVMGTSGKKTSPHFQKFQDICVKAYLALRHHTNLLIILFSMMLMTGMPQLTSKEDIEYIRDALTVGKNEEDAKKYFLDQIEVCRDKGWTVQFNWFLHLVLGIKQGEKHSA
- PROTOCOL_TEXT: PI 3-Kinase (human) HTRF assay, p110γ
- Type: biochemical
- REPORTED_CONDITIONS: read-out: PI3K γ IC50
pIC50: −log10 of the molar value.
VALUE_KIND: pIC50

[[record]]
structure_smiles_string = "CN1CCC(NC(=O)c2cnc3ccc(-c4ccc5oc(N)nc5c4)cn23)CC1"
value_measured = "> 6.00"

[[record]]
structure_smiles_string = "CC(=O)NC1CCN(C(=O)c2cnc3ccc(-c4ccc5oc(N)nc5c4)cn23)CC1"
value_measured = "> 5.00"

[[record]]
structure_smiles_string = "Nc1nc2cc(-c3ccc4ncc(NC5CCOCC5)nc4c3)ccc2o1"
value_measured = "> 7.00"

[[record]]
structure_smiles_string = "Nc1nc2cc(-c3ccc4ncc(-c5cccnc5)n4n3)ccc2o1"
value_measured = "> 7.00"

[[record]]
structure_smiles_string = "Nc1nc2cc(-c3ccc4ncc(NCCN5CCOCC5)nc4c3)ccc2o1"
value_measured = "> 6.00"

[[record]]
structure_smiles_string = "C[C@@H]1CN(c2cnc3ccc(-c4ccc5oc(N)nc5c4)cc3n2)C[C@H](C)O1"
value_measured = "> 5.00"

[[record]]
structure_smiles_string = "N#Cc1cnc2ccc(-c3ccc4oc(N)nc4c3)cc2c1"
value_measured = "> 6.00"

[[record]]
structure_smiles_string = "CN(C)C1CCN(c2cnc3ccc(-c4ccc5oc(N)nc5c4)cc3n2)CC1"
value_measured = "> 6.00"

[[record]]
structure_smiles_string = "Nc1nc2cc(-c3ccc4ncc(-c5cccnc5)nc4c3)ccc2o1"
value_measured = "> 6.00"


###

- MEASURED_TARGET: p110α/p85α (Homo sapiens (Human), UniProt P42336)
- Sequence (P42336 whole entry): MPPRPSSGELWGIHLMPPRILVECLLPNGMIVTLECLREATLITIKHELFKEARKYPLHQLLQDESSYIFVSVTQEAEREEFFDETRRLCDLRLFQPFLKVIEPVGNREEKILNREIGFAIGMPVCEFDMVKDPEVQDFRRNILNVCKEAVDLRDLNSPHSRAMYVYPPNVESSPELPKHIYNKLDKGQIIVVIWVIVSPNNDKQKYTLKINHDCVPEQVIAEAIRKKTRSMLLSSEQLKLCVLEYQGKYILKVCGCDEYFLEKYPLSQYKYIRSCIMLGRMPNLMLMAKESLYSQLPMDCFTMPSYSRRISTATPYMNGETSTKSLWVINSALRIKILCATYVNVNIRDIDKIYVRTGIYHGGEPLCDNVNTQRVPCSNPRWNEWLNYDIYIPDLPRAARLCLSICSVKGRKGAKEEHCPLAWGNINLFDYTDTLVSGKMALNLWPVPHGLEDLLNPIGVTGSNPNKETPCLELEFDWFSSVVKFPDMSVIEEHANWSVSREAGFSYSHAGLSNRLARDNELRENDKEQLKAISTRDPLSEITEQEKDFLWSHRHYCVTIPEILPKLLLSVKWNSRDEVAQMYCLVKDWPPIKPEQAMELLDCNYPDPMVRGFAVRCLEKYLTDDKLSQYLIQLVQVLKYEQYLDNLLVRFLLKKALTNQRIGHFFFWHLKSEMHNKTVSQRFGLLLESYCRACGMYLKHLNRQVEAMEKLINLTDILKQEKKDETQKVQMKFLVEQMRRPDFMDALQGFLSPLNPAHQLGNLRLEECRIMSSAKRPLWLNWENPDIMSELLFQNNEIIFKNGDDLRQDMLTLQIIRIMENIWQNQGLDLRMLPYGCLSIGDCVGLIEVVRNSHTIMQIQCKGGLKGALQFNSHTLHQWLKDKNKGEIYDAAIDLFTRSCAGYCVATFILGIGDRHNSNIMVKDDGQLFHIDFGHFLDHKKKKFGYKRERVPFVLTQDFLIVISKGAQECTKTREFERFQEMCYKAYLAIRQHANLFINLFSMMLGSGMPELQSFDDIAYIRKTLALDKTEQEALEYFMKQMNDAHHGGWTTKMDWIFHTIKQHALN
- Sequence (P27986 whole entry partner): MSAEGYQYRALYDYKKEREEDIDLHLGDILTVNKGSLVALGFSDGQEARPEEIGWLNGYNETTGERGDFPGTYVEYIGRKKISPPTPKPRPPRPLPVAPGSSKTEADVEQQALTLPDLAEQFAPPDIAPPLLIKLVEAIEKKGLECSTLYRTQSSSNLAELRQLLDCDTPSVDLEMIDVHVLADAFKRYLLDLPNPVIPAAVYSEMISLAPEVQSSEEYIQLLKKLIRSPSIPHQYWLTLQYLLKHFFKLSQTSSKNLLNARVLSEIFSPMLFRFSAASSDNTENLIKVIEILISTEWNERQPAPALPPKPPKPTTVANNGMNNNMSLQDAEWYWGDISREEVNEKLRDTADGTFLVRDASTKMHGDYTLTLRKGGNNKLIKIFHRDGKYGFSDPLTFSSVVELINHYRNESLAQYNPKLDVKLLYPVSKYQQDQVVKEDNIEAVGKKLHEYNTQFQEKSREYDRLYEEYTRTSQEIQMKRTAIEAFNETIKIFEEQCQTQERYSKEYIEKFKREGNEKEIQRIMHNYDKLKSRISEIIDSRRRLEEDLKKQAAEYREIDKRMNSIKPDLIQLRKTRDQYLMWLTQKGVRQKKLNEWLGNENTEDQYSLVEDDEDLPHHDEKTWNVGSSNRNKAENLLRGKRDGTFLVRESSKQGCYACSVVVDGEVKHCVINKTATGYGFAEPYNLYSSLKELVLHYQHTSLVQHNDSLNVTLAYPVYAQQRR
- PROTOCOL_TEXT: PI 3-Kinase (human) HTRF assay, p110α/p85α
- Format: biochemical
- REPORTED_CONDITIONS: read-out: PI3K α In Vitro IC50
Consider the following compounds and their measured IC50 readings.
VALUE_KIND: IC50

[[record]]
compound = "Nc1nc2cc(-c3ccc4ncc(C(=O)N5CC(n6cccn6)C5)n4c3)ccc2o1"
value_measured = "< 100 nM"

[[record]]
compound = "COc1ccc(-c2ccc3ncc(C(=O)N4CCOCC4)n3c2)cc1S(=O)(=O)Nc1ccccc1"
value_measured = "< 10000 nM"

[[record]]
compound = "CC(Oc1nc(-c2ccc3ncc(C(=O)N4CCOCC4)n3c2)cnc1N)C(F)(F)F (stereo not drawn)"
value_measured = "< 100 nM"

[[record]]
compound = "CN1CCC(n2cnc3ccc(-c4cnc(Cl)c(NS(C)(=O)=O)c4)cc3c2=O)CC1"
value_measured = "< 100 nM"

[[record]]
compound = "Nc1ncc(-c2ccc3ncc(C(=O)N4CCOCC4)n3c2)cc1C(F)(F)F"
value_measured = "< 10000 nM"

[[record]]
compound = "Nc1nc2cc(-c3ccc4ncc(C(=O)N5CC(N6CCC(F)(F)C6)C5)n4c3)ccc2o1"
value_measured = "< 100 nM"

[[record]]
compound = "CC(C)N1CCC(n2cnc3ccc(-c4cnc(Cl)c(NS(C)(=O)=O)c4)cc3c2=O)CC1"
value_measured = "< 100 nM"

[[record]]
compound = "Nc1nc2cc(-c3ccc4ncc(C(=O)N5CCC(N6CC(F)(F)C6)C5)n4c3)ccc2o1 (stereo not drawn)"
value_measured = "< 1000 nM"

[[record]]
compound = "O=C(c1cnc2ccc(-c3ccc4oc(NC5CC5)nc4c3)cn12)N1CCOCC1"
value_measured = "< 10000 nM"

[[record]]
compound = "CS(=O)(=O)Nc1cc(-c2ccc3ncc(C(=O)N4CCOCC4)n3c2)ccc1Cl"
value_measured = "< 10000 nM"

[[record]]
compound = "CNc1noc2cc(-c3ccc4ncc(C(=O)N5CCOCC5)n4c3)ccc12"
value_measured = "< 10000 nM"

[[record]]
compound = "COc1ccc(-c2ccc3ncc(C(=O)N4CCOCC4)n3c2)cc1NS(=O)(=O)c1ccccc1"
value_measured = "< 10000 nM"

[[record]]
compound = "CC(=O)Nc1nc2cc(-c3cc(F)c4oc(N)nc4c3)ccc2s1"
value_measured = "< 10000 nM"

[[record]]
compound = "COc1ncc(-c2ccc3ncc(C(=O)N4CCOCC4)n3c2)cc1NS(=O)(=O)c1ccc(F)cc1"
value_measured = "< 100 nM"

[[record]]
compound = "O=C(c1cnc2ccc(-c3cnc(Cl)c(NS(=O)(=O)c4ccc(F)cc4F)c3)cn12)N1CCOCC1"
value_measured = "< 100 nM"

[[record]]
compound = "COC1CN(C(=O)c2cnc3ccc(-c4ccc5oc(N)nc5c4)cn23)C1"
value_measured = "< 100 nM"

[[record]]
compound = "C[C@H]1CCCN1C(=O)c1cnc2ccc(-c3ccc4oc(N)nc4c3)cn12"
value_measured = "< 100 nM"

[[record]]
compound = "CN1CC(n2cnc3ccc(-c4ccc5oc(N)nc5c4)cc3c2=O)C1"
value_measured = "< 1000 nM"

[[record]]
compound = "Nc1nc2nc(-c3ccc4ncc(C(=O)N5CCOCC5)n4c3)ccc2o1"
value_measured = "< 10000 nM"

[[record]]
compound = "CC(=O)Nc1nc2ccc(-c3cc(F)c4oc(N)nc4c3)cc2s1"
value_measured = "< 100 nM"

[[record]]
compound = "Nc1nc2cc(-c3ccn4ncc(C(=O)N5CCC(N6CCOCC6)CC5)c4c3)ccc2o1"
value_measured = "< 1000 nM"

[[record]]
compound = "Nc1nc2c(-c3ccc4ncc(C(=O)N5CCOCC5)n4c3)cccc2o1"
value_measured = "< 1000 nM"

[[record]]
compound = "Nc1nc2cc(-c3ccc4ncc(C(=O)N5CC[C@H](F)C5)n4c3)ccc2o1"
value_measured = "< 100 nM"

[[record]]
compound = "Cc1cc(-c2ccc3nc(N)oc3c2)cn2c(C(=O)N3CCOCC3)cnc12"
value_measured = "< 1000 nM"

[[record]]
compound = "Nc1nc2cc(-c3ccc4ncc(C(=O)N5CC(F)C5)n4c3)ccc2o1"
value_measured = "< 100 nM"

[[record]]
compound = "COc1ncc(-c2ccc3ncc(C(=O)N4CCOCC4)n3c2)cc1NS(=O)(=O)c1cccc(F)c1"
value_measured = "< 100 nM"

[[record]]
compound = "Nc1nc2cc(-c3ccc4ncc(C(=O)N5CC[C@@H](N6CCOCC6)C5)n4c3)ccc2o1"
value_measured = "< 1000 nM"

[[record]]
compound = "Nc1nc2cc(-c3ccc4ncc(C(=O)N5CCC(N6CCC(F)(F)C6)C5)n4c3)ccc2o1 (stereo not drawn)"
value_measured = "< 1000 nM"

[[record]]
compound = "O=C(c1cnc2ccc(-c3cccc4[nH]ncc34)cn12)N1CCOCC1"
value_measured = "< 100 nM"

[[record]]
compound = "Nc1nc2cc(-c3ccc4ncc(C(=O)N5CCC6(C5)OCCO6)n4c3)ccc2o1"
value_measured = "< 1000 nM"

[[record]]
compound = "Nc1nc2cccc(-c3ccc4ncc(C(=O)N5CCOCC5)n4c3)c2s1"
value_measured = "< 10000 nM"

[[record]]
compound = "Nc1nc2cc(-c3ccc4ncc(C(=O)N5CC(N6CC[C@@H](O)C6)C5)n4c3)ccc2o1"
value_measured = "< 100 nM"

[[record]]
compound = "CN1CCC(n2cnc3ccc(-c4cnc(Cl)c(NS(=O)(=O)c5ccccc5)c4)cc3c2=O)CC1"
value_measured = "< 100 nM"


###

- MEASURED_TARGET: UniProt P48736
- PROTOCOL_TEXT: PI 3-Kinase (human) HTRF assay, p110γ
- Type: biochemical
- REPORTED_CONDITIONS: in vitro; read-out: PI3K γ IC50
pIC50: −log10 of the molar value.
Listed here are compounds together with their documented pIC50.
VALUE_KIND: pIC50

[[record]]
compound = "CN1CCN(c2cnc3ccc(-c4ccc5oc(N)nc5c4)cc3n2)CC1=O"
measured_target = "UniProt P48736"
value_kind = "pIC50"
value_measured = "> 6.00"

[[record]]
compound = "C[C@@H]1CN(C2CN(c3cnc4ccc(-c5ccc6oc(N)nc6c5)cc4n3)C2)CCN1"
measured_target = "UniProt P48736"
value_kind = "pIC50"
value_measured = "> 5.00"

[[record]]
compound = "Nc1nc2cc(-c3ccc4ncc(C(=O)N5CCOCC5)n4c3)c(F)cc2o1"
measured_target = "UniProt P48736"
value_kind = "pIC50"
value_measured = "> 5.00"

[[record]]
compound = "C[C@H]1CN(c2cnc3ccc(-c4ccc5oc(N)nc5c4)cc3n2)CCN1C"
measured_target = "UniProt P48736"
value_kind = "pIC50"
value_measured = "> 6.00"

[[record]]
compound = "Nc1nc2cc(-c3ccc4ncc(N5CCNC(C(F)(F)F)C5)nc4c3)ccc2o1 (stereo not drawn)"
measured_target = "UniProt P48736"
value_kind = "pIC50"
value_measured = "> 6.00"

[[record]]
compound = "CS(=O)(=O)CCN1CCN(C(=O)c2cnc3ccc(-c4ccc5oc(N)nc5c4)cn23)CC1"
measured_target = "UniProt P48736"
value_kind = "pIC50"
value_measured = "> 6.00"

[[record]]
compound = "Nc1nc2cc(-c3ccc4ncc(N5CCN(C(=O)C6(N)CC6)CC5)nc4c3)ccc2o1"
measured_target = "UniProt P48736"
value_kind = "pIC50"
value_measured = "> 5.00"

[[record]]
compound = "CCN1CCN(C2CN(c3cnc4ccc(-c5ccc6oc(N)nc6c5)cc4n3)C2)CC1"
measured_target = "UniProt P48736"
value_kind = "pIC50"
value_measured = "> 5.00"

[[record]]
compound = "Nc1nc2cc(-c3ccc4ncc(N5CC(n6ccnc6)C5)nc4c3)ccc2o1"
measured_target = "UniProt P48736"
value_kind = "pIC50"
value_measured = "> 6.00"

[[record]]
compound = "Nc1nc2cc(-c3ccc4ncc(N5CC(C(=O)NC6CC6)C5)nc4c3)ccc2o1"
measured_target = "UniProt P48736"
value_kind = "pIC50"
value_measured = "> 6.00"

[[record]]
compound = "CC(C)[C@H](N)C(=O)N1CCN(c2cnc3ccc(-c4ccc5oc(N)nc5c4)cc3n2)CC1"
measured_target = "UniProt P48736"
value_kind = "pIC50"
value_measured = "> 5.00"

[[record]]
compound = "Nc1nc2cc(-c3ccc4ncc(N5CCN(C(=O)[C@H](N)CO)CC5)nc4c3)ccc2o1"
measured_target = "UniProt P48736"
value_kind = "pIC50"
value_measured = "> 7.00"

[[record]]
compound = "Nc1nc2cc(-c3ccc4ncc(C(=O)NCCCN5CCOCC5)n4c3)ccc2o1"
measured_target = "UniProt P48736"
value_kind = "pIC50"
value_measured = "> 5.00"

[[record]]
compound = "Nc1nc2cc(-c3ccc4ncc(N5CC(N6CC[C@@H](O)C6)C5)nc4c3)ccc2o1"
measured_target = "UniProt P48736"
value_kind = "pIC50"
value_measured = "> 5.00"

[[record]]
compound = "Nc1nc2cc(-c3ccc4ncc(N5CC[C@H](N6CCOCC6)C5)nc4c3)ccc2o1"
measured_target = "UniProt P48736"
value_kind = "pIC50"
value_measured = "> 6.00"

[[record]]
compound = "Nc1nc2cc(-c3ccc4ncc(N5CC(C(=O)N6CCOCC6)C5)nc4c3)ccc2o1"
measured_target = "UniProt P48736"
value_kind = "pIC50"
value_measured = "> 5.00"

[[record]]
compound = "Nc1nc2cc(-c3ccc4ncc(C(=O)N5CC5)n4c3)ccc2o1"
measured_target = "UniProt P48736"
value_kind = "pIC50"
value_measured = "> 6.00"

[[record]]
compound = "Nc1nc2cc(-c3ccc4ncc(N5CC(N6CCOCC6)C5)nc4c3)ccc2o1"
measured_target = "UniProt P48736"
value_kind = "pIC50"
value_measured = "> 5.00"

[[record]]
compound = "Nc1nc2cc(-c3ccc4ncc(N5CC(N6CCN(CCO)CC6)C5)nc4c3)ccc2o1"
measured_target = "UniProt P48736"
value_kind = "pIC50"
value_measured = "> 5.00"

[[record]]
compound = "Nc1nc2cc(-c3ccc4ncc(N5CC[C@@H](N6CCOCC6)C5)nc4c3)ccc2o1"
measured_target = "UniProt P48736"
value_kind = "pIC50"
value_measured = "> 7.00"

[[record]]
compound = "CC(C)[C@@H](N)C(=O)N1CCN(c2cnc3ccc(-c4ccc5oc(N)nc5c4)cc3n2)CC1"
measured_target = "UniProt P48736"
value_kind = "pIC50"
value_measured = "> 6.00"

[[record]]
compound = "Nc1nc2cc(-c3ccc4ncn(CCN5CCCC5)c(=O)c4c3)ccc2o1"
measured_target = "UniProt P48736"
value_kind = "pIC50"
value_measured = "> 5.00"

[[record]]
compound = "Nc1nc2cc(-c3ccc4ncc(N5CCC(n6cccn6)CC5)nc4c3)ccc2o1"
measured_target = "UniProt P48736"
value_kind = "pIC50"
value_measured = "> 6.00"

[[record]]
compound = "Nc1nc2cc(-c3ccc4ncc(N5CCN(C6CC6)CC5)nc4c3)ccc2o1"
measured_target = "UniProt P48736"
value_kind = "pIC50"
value_measured = "> 6.00"

[[record]]
compound = "Nc1nc2cc(-c3ccc4ncc(N5CC(n6cccn6)C5)nc4c3)ccc2o1"
measured_target = "UniProt P48736"
value_kind = "pIC50"
value_measured = "> 6.00"

[[record]]
compound = "Nc1nc2cc(-c3ccc4ncc(C(=O)N5CC[C@@H](O)C5)n4c3)ccc2o1"
measured_target = "UniProt P48736"
value_kind = "pIC50"
value_measured = "> 7.00"

[[record]]
compound = "Nc1nc2ccc(-c3ccc4sc(N)nc4c3)cc2o1"
measured_target = "UniProt P48736"
value_kind = "pIC50"
value_measured = "> 7.00"

[[record]]
compound = "Cc1cc(-c2ccc3oc(N)nc3c2)cc2c(C(=O)N3CCOCC3)cnn12"
measured_target = "UniProt P48736"
value_kind = "pIC50"
value_measured = "> 6.00"

[[record]]
compound = "CNC(=O)C1CN(c2cnc3ccc(-c4ccc5oc(N)nc5c4)cc3n2)C1"
measured_target = "UniProt P48736"
value_kind = "pIC50"
value_measured = "> 6.00"

[[record]]
compound = "Nc1nc2cc(-c3ccc4ncc(N5CCN(CC(F)(F)F)CC5)nc4c3)ccc2o1"
measured_target = "UniProt P48736"
value_kind = "pIC50"
value_measured = "> 7.00"

[[record]]
compound = "Cc1nccn1C1CCN(c2cnc3ccc(-c4ccc5oc(N)nc5c4)cc3n2)CC1"
measured_target = "UniProt P48736"
value_kind = "pIC50"
value_measured = "> 5.00"

[[record]]
compound = "Nc1nc2cc(-c3ccc4ncc(N5CC(N6CCS(=O)(=O)CC6)C5)nc4c3)ccc2o1"
measured_target = "UniProt P48736"
value_kind = "pIC50"
value_measured = "> 5.00"

[[record]]
compound = "CN1CCN(CCNc2cnc3ccc(-c4ccc5oc(N)nc5c4)cc3n2)CC1"
measured_target = "UniProt P48736"
value_kind = "pIC50"
value_measured = "> 6.00"

